System: human Factor 7 mRNA
experiment: Dose-dependent antisense inhibition of human Factor 7 in HepB3 cells, lipofectin
Assay type: cell-based
settings: Table 3, 100.0 nM, approximately 16 hours
Strand notation (5' to 3'): a small letter for the sugar, then the base; units joined by * are phosphorothioate-linked, units joined directly phosphodiester-linked; [ ] holds rarer units or linkages, { } end groups; capitals alone tell only the bases. e = 2'-O-(2-methoxyethyl) (MOE); [5mC] = 5-methylcytosine; d = 2'-deoxy (DNA)
Please go through the items and note down their percent inhibition of Factor 7.
Write the value in % as a bare number.

For 407900 (antisense e[5mC]*e[5mC]*e[5mC]*e[5mC]*eA*d[5mC]*dA*dA*dT*dT*d[5mC]*dG*dG*d[5mC]*d[5mC]*eT*eT*eG*eG*eG) [compound 407900] the substance record lists percent inhibition of Factor 7 as 91

For 407935 (antisense eA*eT*eG*e[5mC]*eA*dT*dG*dG*dT*dG*dA*dT*dG*d[5mC]*dT*eT*e[5mC]*eT*eG*eA) [compound 407935] the substance record lists percent inhibition of Factor 7 as 89

For 407641 (antisense e[5mC]*e[5mC]*eT*eG*eA*dG*dG*d[5mC]*d[5mC]*dA*dG*d[5mC]*dA*dG*dA*eT*e[5mC]*eA*e[5mC]*eG) [compound 407641] the substance record lists percent inhibition of Factor 7 as 89

For 407910 (antisense eA*eG*eT*e[5mC]*e[5mC]*dT*dT*dG*d[5mC]*dT*dG*d[5mC]*d[5mC]*dA*dT*e[5mC]*e[5mC]*eG*eA*eG) [compound 407910] the substance record lists percent inhibition of Factor 7 as 89

For 407936 (antisense eG*eG*e[5mC]*eA*eT*dT*d[5mC]*dG*d[5mC]*d[5mC]*dA*d[5mC]*d[5mC]*dA*dT*eG*e[5mC]*eA*eT*eG) [compound 407936] the substance record lists percent inhibition of Factor 7 as 90

For 407939 (antisense eT*eG*e[5mC]*eA*eG*d[5mC]*d[5mC]*d[5mC]*dG*dG*d[5mC]*dA*d[5mC]*d[5mC]*d[5mC]*eA*eG*e[5mC]*eG*eA) [compound 407939] the substance record lists percent inhibition of Factor 7 as 92

###

Tested on: human Factor 7 mRNA
experiment: Antisense inhibition of human Factor 7 mRNA in HepB3 cells, 50 nM antisense oligonucleotide, lipofectin
Assay type: cell-based
settings: oligonucleotides targeted to nucleobases 13760 to 13789 of SEQ ID NO: 1 (Table 10)
Strand notation (5' to 3'): a small letter for the sugar, then the base; units joined by * are phosphorothioate-linked, units joined directly phosphodiester-linked; [ ] holds rarer units or linkages, { } end groups; capitals alone tell only the bases. e = 2'-O-(2-methoxyethyl) (MOE); [5mC] = 5-methylcytosine; d = 2'-deoxy (DNA)
Please go through the items and note down their % Inhibition (human Factor 7 mRNA levels).
Write the value in % as a bare number.

For 422252 (antisense e[5mC]*eG*d[5mC]*d[5mC]*dG*dG*d[5mC]*dT*d[5mC]*dT*dG*d[5mC]*dT*d[5mC]*dA*eT*e[5mC]*e[5mC]*e[5mC]*e[5mC]) [compound 422252] the substance record lists % Inhibition (human Factor 7 mRNA levels) as 70

For 422261 (antisense eT*eG*d[5mC]*dG*d[5mC]*d[5mC]*dA*d[5mC]*d[5mC]*d[5mC]*dG*d[5mC]*d[5mC]*dG*dG*e[5mC]*eT*e[5mC]*eT*eG) [compound 422261] the substance record lists % Inhibition (human Factor 7 mRNA levels) as 47

For 422180 (antisense e[5mC]*e[5mC]*eA*d[5mC]*d[5mC]*d[5mC]*dG*d[5mC]*d[5mC]*dG*dG*d[5mC]*dT*d[5mC]*dT*dG*d[5mC]*eT*e[5mC]*eA) [compound 422180] the substance record lists % Inhibition (human Factor 7 mRNA levels) as 54
